- experimental.protocol: Inhibition of human recombinant PLAP using biotinylated CDP as substrate incubated for 30 mins by chemiluminescent assay
observation.type: IC50 (µM)

Some solved entries appear below for comparison.
>  <molecule>
COc1c(Cl)cc(-c2cccc(C[C@H](NC(=O)c3cc(-c4ccc(C)o4)[nH]n3)C(=O)O)c2)cc1Cl

>  <observation.type>
IC50

>  <numeric.result>
0.13

$$$$
>  <molecule>
Cc1ccc(NC(=O)NCC#Cc2ccc(C[C@H](NC(=O)c3nn(C)c(C)c3Br)C(=O)O)cc2)cc1

>  <observation.type>
IC50

>  <numeric.result>
19

$$$$
>  <molecule>
COC(=O)[C@H](Cc1ccc(-c2ccc(Cl)cc2C(F)(F)F)cc1)NC(=O)CC1C(=O)Nc2cc(C)ccc21 (stereo not given in full)

>  <observation.type>
IC50

>  <numeric.result>
3.9

$$$$
>  <molecule>
Cc1cc(-c2cnccn2)ccc1NC(=O)[C@@H](CCC(N)=O)n1cc(CNC(=O)c2ccc3ncn(CC(=O)c4ccc(O)c(O)c4)c3c2)nn1

>  <observation.type>
IC50

>  <numeric.result>
2.4

$$$$
>  <molecule>
CC(C)(C)OC(=O)n1c(-c2ccccc2C[C@H](NC(=O)c2cnc3ccccn3c2=O)C(=O)O)cc2c(Cl)cccc21

>  <observation.type>
IC50

>  <numeric.result>
4

$$$$
>  <molecule>
C[C@@H]1CCC[C@H](C)N1CCC(=O)N[C@@H](CCC(=O)N[C@@H](CCC(=O)O)C(=O)N[C@@H](CCCCN)C(N)=O)C(=O)NCCCSCc1ccc(F)cc1

>  <observation.type>
IC50

>  <numeric.result>
16

$$$$

P: Cc1cc(-c2cnccn2)ccc1NC(=O)[C@H](CCC(N)=O)n1cc(CNC(=O)c2ccc3ncn(CC(=O)c4ccc(O)c(O)c4)c3c2)nn1
Q: Cc1ccc2c(c1)NC(=O)C2CC(=O)N[C@@H](Cc1ccc(-c2ccc(Cl)cc2C(F)(F)F)cc1)C(=O)O (stereo not given in full)
R: CC(C)(C)OC(=O)n1c(-c2ccccc2C[C@@H](NC(=O)c2cnc3ccccn3c2=O)C(=O)O)cc2c(Cl)cccc21
S: NC(=O)CC[C@H](C(=O)Nc1cccc(Oc2ccccc2)c1)n1cc(CNC(=O)c2ccc3ncn(CC(=O)c4ccc(O)c(O)c4)c3c2)nn1
T: NC(=O)CC[C@@H](C(=O)Nc1cccc(Oc2ccccc2)c1)n1cc(CNC(=O)c2ccc3ncn(CC(=O)c4ccc(O)c(O)c4)c3c2)nn1
Prompt: Ascending by IC50, please: list the molecules accordingly. The reply should contain the labels ordered as requested.
Response: Q, T, P, S, R
(Q: 0.24 µM, T: 0.84 µM, P: 2.5 µM, S: 5 µM, R: 13 µM)
